assay: protein stability index of a GFP-peptide fusion (yeast GPS) (PSI 1-4); higher = more stable; sorted into four equal gates, so the index is relative within each strain; settings: san1∆
QUANTITY: protein stability index
Write the value as a bare number.

ARTATVSKKWAAAGVCE [RPL14B] : 3.58
IVKRLYEYGAVSVLLIS [BRR2] : 2.24
LMKKACYVGLLTAIPIL [SNU114] : 1.53

// returns reported protein stability index for input TRNITDYSINSRYEPKV [PRE7]
2.99

Please give the result for NEKFEIELLSLDDDSIV [SRB4] too.
2.72

Please give the result for FKRNAVFVGTIFAGAFV [QCR9] too.
1.26

Please give the result for KAFTNWNKRDFMAFINA [ISW2] too.
1.25

Please give the result for PPQLANQQQPPQDILSK [SNF11] too.
2.41

Please give the result for SKTSENKVSNTVSPTQD [SIR2] too.
2.83

Please give the result for QLVYKRGFGKINKQRVP [RPL7A] too.
3.24

Please give the result for MSVERGIRWELISRLCP [RPT1] too.
1.88

---

Quick reference: protein stability index of the listed items.
assay: protein stability index of a GFP-peptide fusion (yeast GPS) (PSI 1-4); higher = more stable; sorted into four equal gates, so the index is relative within each strain; details: ubr1∆
Write the value as a bare number.

DTIMENPEPNKKNIQKA [IRR1] : 2.99
NGERKFLKEKDTVAELQ [FAS2] : 3.02

// switching to the query sequence
// returns reported protein stability index for input ISSLMFDEEFDPFKTSS [IRR1]
2.99

---

test: protein stability index of a GFP-peptide fusion (yeast GPS) (PSI 1-4); higher = more stable; sorted into four equal gates, so the index is relative within each strain; settings: ubr1∆
Would you mind labelling by protein stability index? At or over 2 is true, under is false.

Some solved cases for reference:
AIFPYQDPIFGSVLLTL [ECM29] : false
SKQNGSKFHFSWNESED [PRP28] : true
EKDFCTSCLQNNNQKID [SRB8] : true
ISTSFCFICLLHLANEH [BRN1] : false
KWPEYVRVQRQKKILSI [RPL8A] : false
IMKNKDFILSLLHHVSE [YJL039C/NUP192] : true

Does the reported protein stability index for ANNYSSNIGNNSINNNN [YDL088C/ASM4] fall at or above the 2 mark?
true

Please give the result for DRTLPHFSKDDYSPESK [RPO21] too.
true

Please give the result for LRVDEVQGKNLLTNFHG [RPS1A] too.
true

Please give the result for KQRAGTASFIPLDTIET [SMC1] too.
true

Please give the result for DTSGLKISNSEFFNPEI [SIN4] too.
true

Please give the result for DYKGAKLNVVGWFHSHP [RRI1] too.
true

Please give the result for SIHVNRVERSSRSTDNF [RRI1] too.
true

Please give the result for KIQQHNTILNSSSDFRL [BRR2] too.
true

Please give the result for IASMSTVRASSLQDLIY [SMC2] too.
true

Please give the result for ANPKKLALMTAHSLSPK [CDC53] too.
true

Please give the result for DFHFSTDRITRLFIKPG [BRN1] too.
true

Please give the result for PSTGFKFSLPFEQKGSQ [YLR335W/NUP2] too.
true
